# method: chemical genetic growth profiling, strain panel (AID 1159580);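 further: tested at 20 µM; growth read once vehicle control cultures reached saturation at 30 °C; 1 = growth at the plate median or of vehicle wells; lower values mean less growth of the strain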
# condition description: S. cerevisiae deletion strains, growth OD, locus YLR262C, strain YPT6, stronger effect = lower value
The campaign covered roughly 5,500 compounds. About 2,000 (36%) were called active. Another 18% or so got no clear call; they are omitted. The list shows a part of the results.
For each entry below, report its normalized growth value.
Give only the figure.

Indicate the recorded normalized growth value for this compound: CC(C)(Sc1cc(C(C)(C)C)c(O)c(C(C)(C)C)c1)Sc1cc(C(C)(C)C)c(O)c(C(C)(C)C)c1
1.01

Supply measured normalized growth of COc1ccc2[nH]cc(CCN)c2c1 in your reply.
0.989

Note down normalized growth recorded for NC(N)=N/N=C/c1c(Cl)cccc1Cl
1.02

Supply recorded normalized growth for O=C1ON=C(c2ccccc2)/C1=C/c1ccc(Cl)cc1 here.
0.834

Give the reported normalized growth for this compound. COc1ccc2c(c1)c(CC(=O)O)c(C)n2C(=O)c1ccc(Cl)cc1
1.03

Please look at this compound and report its normalized growth: Nc1c2ccccc2nc2ccccc12
0.915

// fetch normalized growth given entry COc1cc(C2OC(c3cc(C)ccc3[N+](=O)[O-])=NN2C(C)=O)cc(OC)c1OC (configuration not stated)
0.948

---

# method: chemical genetic growth profiling, strain panel (AID 1159580);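 further: tested at 20 µM; growth read once vehicle control cultures reached saturation at 30 °C; 1 = growth at the plate median or of vehicle wells; lower values mean less growth of the strain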
# condition description: S. cerevisiae deletion strains, growth OD, locus YJR066W, strain TOR1, stronger effect = lower value
Hit rate of the full screen: of about 5,500 compounds, about 2,000 (36%) were called active. About 18% were inconclusive and are not listed. The list shows a part of the results.
measurement type: normalized growth
No unit in the answer, please; the number alone is enough.

Report measured normalized growth; entry is Nc1c2ccccc2nc2ccccc12 (tested in a mixture with another compound)
0.397

Name the recorded normalized growth of the compound listed here: N#Cc1c2ccccc2nc2ccccc12
0.615

Give the reported value of normalized growth for this record: COc1c(CC(=O)c2cc3c(cc2O)OC(C)(C)C(O)C3)ccc2c1C=CC(C)(C)O2 (stereo not given)
0.935

Given the compound COc1ccc2nc3ccccc3c(N)c2c1 , write its reported normalized growth.
0.233

Complete the entry with normalized growth for O=[N+]([O-])c1ccc(S(=O)(=O)c2ccccc2)nc1S(=O)(=O)c1ccccc1
0.299

Query normalized growth for O=C(NCCNc1ncc(C(F)(F)F)cc1Cl)C(F)(F)Sc1ccccc1
0.989

State its normalized growth: COc1ccc2c(c1)c(CC(=O)OCC(=O)O)c(C)n2C(=O)c1ccc(Cl)cc1
0.89

Identify normalized growth associated with the compound Nc1c2c(nc3ccccc13)CCCC2
0.987

Retrieve normalized growth measured for O=C(c1ccc(Cl)cc1)N(Cc1ccccc1)Cc1cccnc1 and print it.
0.89

Query normalized growth for CC(=O)O[C@H]1CC[C@@]2(C)C(CC[C@]3(C)C2CC=C2C4CC(C)(C)CC[C@]4(C)CC[C@]23C)C1(C)C (stereo not given in full)
0.976

---

# method: chemical genetic growth profiling, strain panel (AID 1159580);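 further: tested at 20 µM; growth read once vehicle control cultures reached saturation at 30 °C; 1 = growth at the plate median or of vehicle wells; lower values mean less growth of the strain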
# condition description: S. cerevisiae deletion strains, growth OD, locus YDL035C, strain GPR1, stronger effect = lower value
About 2,000 (36%) of roughly 5,500 compounds were called active. Not shown: some 18% with an inconclusive outcome. Some of the results follow. Where a SMILES comes first, the peptide text is derived from it. The star is where a group is joined. For = O=C*
Hi! Could you tag entries with normalized growth below 1 as True, and those at or above as False? Much appreciated.

Bench note: check whether Nc1c2ccccc2nc2ccccc12 (tested in a mixture with another compound) shows normalized growth below 1
True

Threshold test, normalized growth < 1: CC(C)=CCCC1(C)C=Cc2c(O)c3c(c(CC=C(C)C)c2O1)OC12C(=CCCC1C(C)(C)O[C@@]2(C/C=C(\C)C(=O)O)C(=O)O)C3=O (some centres undefined)
True

For N=C(N)c1ccc(OCCCCCOc2ccc(C(=N)N)cc2)cc1 , is the recorded normalized growth below the cut-off of 1?
True

Quick check: normalized growth of CSCCC(NC=O)C(=O)NC(Cc1ccccc1)C(=O)O (stereo not drawn) (For-Met-Phe-OH; configuration not given here) under 1?
False

Lab note: normalized growth threshold 1. Does this molecule come in strictly under it? O=c1[nH]cc(F)c(=O)[nH]1
True

State whether 1 exceeds normalized growth recorded for CC(=O)/C=C\[C@@H]1[C@@]2(C)CCCC(C)(C)C2CC[C@@]1(C)O (some centres undefined) .
True

Input O=c1cc(CO)occ1O ; condition: normalized growth strictly below 1. Does it hold?
False

normalized growth under 1? Item: O=C(COc1ccc(Cl)cc1)N1CCN(Cc2ccc3c(c2)OCO3)CC1
True

hey, is normalized growth for CC(C)=CCCC1(C)C=Cc2c(O)c3c(c(CC=C(C)C)c2O1)OC12C(=CC4CC1C(C)(C)OC2(C/C=C(/C)C(=O)O)C4O)C3=O (centres undefined) lower than 1 or not?
True

Consider CC1=CCC2C3(C)C1=CC(=O)OC3CC1C(C)(C)CC(O)C(O)C12C (centres undefined) . Does its normalized growth lie strictly below 1?
False

Values were extracted from PubChem BioAssay AID1159580.
